target: Sodium-dependent serotonin transporter (Homo sapiens, UniProt P31645); note: assay procedure not described here
Sequence (P31645 whole entry): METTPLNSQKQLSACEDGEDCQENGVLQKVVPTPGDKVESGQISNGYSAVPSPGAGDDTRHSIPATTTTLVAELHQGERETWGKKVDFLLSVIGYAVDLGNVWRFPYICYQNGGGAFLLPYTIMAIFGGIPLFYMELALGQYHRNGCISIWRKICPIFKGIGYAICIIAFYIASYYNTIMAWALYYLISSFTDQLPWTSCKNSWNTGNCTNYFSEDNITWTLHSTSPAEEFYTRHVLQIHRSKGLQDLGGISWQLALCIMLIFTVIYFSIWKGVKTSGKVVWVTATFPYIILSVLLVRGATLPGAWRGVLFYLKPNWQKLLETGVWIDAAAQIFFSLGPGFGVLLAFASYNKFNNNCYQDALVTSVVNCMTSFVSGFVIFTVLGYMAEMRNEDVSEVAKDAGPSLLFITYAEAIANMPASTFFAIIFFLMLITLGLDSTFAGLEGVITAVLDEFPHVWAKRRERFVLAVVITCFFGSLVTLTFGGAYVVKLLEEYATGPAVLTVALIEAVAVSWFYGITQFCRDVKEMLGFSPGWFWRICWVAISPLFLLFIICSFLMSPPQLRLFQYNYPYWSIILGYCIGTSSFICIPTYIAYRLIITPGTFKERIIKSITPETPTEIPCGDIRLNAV
REPORTED_METRIC: AC50

- COC(=O)[C@H]1[C@H]2C[C@@H]3c4[nH]c5cc(OC)ccc5c4CCN3C[C@H]2C[C@@H](OC(=O)/C=C/c2cc(OC)c(OC)c(OC)c2)[C@@H]1OC: > 30 µM
- CNC(=O)c1ccccc1Sc1ccc2c(/C=C/c3ccccn3)n[nH]c2c1: > 30 µM

Please turn your attention to the following entry.
stdin: Checklist item: AC50 tested on Sodium-dependent serotonin transporter (Homo sapiens, UniProt P31645), entry CC(=O)OCC(=O)[C@@]12N=C(C)O[C@@H]1C[C@H]1[C@@H]3CCC4=CC(=O)C=C[C@]4(C)[C@H]3[C@@H](O)C[C@@]12C , value?; note: assay procedure not described here
stdout: > 30 µM
